Test: Mean value of binding constant for Opioid receptors assayed with [3H]DPDPE
Starred links: 1 amine or outer side, 2 acyl side, 3 side chain; linkers in the order of their positions; H or OH if unused. Positions of bridges follow the written chain, without caps; N, C: chain ends. Residues, ends and D or L forms follow the SMILES beside them. Chains are numbered I, II in the order given. Ethylenediamine = C(CN[*:2])N[*:1]
MEASUREMENT LABEL: pKi
Please note pKi is a logarithmic value: minus log10 of concentration in mol/L. Answer with that number alone.

Exercise: State the recorded pKi for this entry: N[C@@H](Cc1ccc(O)cc1)C(=O)N1CCC[C@H]1C(=O)N[C@@H](Cc1ccccc1)C(=O)NCCNC(=O)[C@H](Cc1ccccc1)NC(=O)[C@@H]1CCCN1C(=O)[C@@H](N)Cc1ccc(O)cc1 (I: H-Tyr-Pro-Phe / II: H-Tyr-Pro-Phe; linker I:C-II:C via Ethylenediamine)
Solution: 6.03

Exercise: Try the compound N[C@@H](Cc1ccc(O)cc1)C(=O)N1CCC[C@H]1C(=O)N[C@@H](Cc1ccccc1)C(=O)N[C@@H](Cc1ccccc1)C(=O)NCCCCNC(=O)[C@H](Cc1ccccc1)NC(=O)[C@H](Cc1ccccc1)NC(=O)[C@@H]1CCCN1C(=O)[C@@H](N)Cc1ccc(O)cc1
Solution: 5.15
